- System: MDA-MB-231 breast
- methodSummary: NCI-60 one-dose screen, 48 h (100 = growth as untreated, 0 = no growth, -100 = all killed)
- recordedConditions: 10 µM unless noted
This is part of a sample that, as a whole, favours compounds with a hit. Of some 83,000 tested, about 20% had one in any assay.
// reported growth for each item listed
Record the value in %, omitting the unit from your answer.

Worked set:
CCCCCN1C=C/C(=C\C(=O)N2CCCc3ccccc32)c2ccccc21 97
NC(=NCCCOc1ccc(F)cc1)Nc1ccc(I)cc1 51.9
COc1cc(C2=C(c3cn(C)c4ccccc34)COC2=O)cc(OC)c1OC 22.5

In: What growth appears in the records for this molecule with MDA-MB-231 breast? `CC(=O)Nc1cccc(-c2ccc3c(c2)NC(=O)/C3=C\c2ccc[nH]2)c1`
Out: 34.9

In: Subsequent entry: `CN1[C@@H]2CC[C@H]1/C(=C\c1ccccc1)C(=O)/C2=C/c1ccccc1`
Out: 47.6

* * *

- Test system: SF-539 CNS
- methodSummary: NCI-60 one-dose screen, 48 h (100 = growth as untreated, 0 = no growth, -100 = all killed)
- recordedConditions: 10 µM unless noted
Compounds without any hit were thinned out: in the full panel of roughly 83,000, 20% have a hit. The source made the active and inactive calls. How the source made its calls: active means growth percent below 10; inactive means the rest.
// reported growth for each item listed

compound	measuredValue
COc1cc2nc(-c3ccc(C(F)(F)F)cc3)cc(OCCN3CCCCC3)c2cc1OC	74.4% (inactive)
C=C1C(=O)O[C@H]2[C@H]1CC/C(CNC(=O)C(C)c1ccc(CC(C)C)cc1)=C\CC[C@@]1(C)O[C@@H]21 (some centres not stated)	-74.8% (active)
O=C1Nc2ccc(F)cc2/C1=C\c1c(-c2ccccc2)nc2ccccn12	73.3% (inactive)
COC(=O)/C=C1\S/C(=N\NC(=O)c2cc3ccc2/C=C\c2ccc(cc2)/C=C\3)N(c2ccccc2)C1=O	-22.5% (active)

In: // returns reported growth for input `O=C(Nc1ncc(Cc2cc(Cl)ccc2Cl)s1)c1cccs1`
Out: 73.9% (inactive)

In: Subsequent entry: `COc1cc2c3c(c4c5ccccc5[nH]c4c2c(OC)c1OC)C(=O)N(CCN1CCOCC1)C3=O`
Out: 63.7% (inactive)

In: Subsequent entry: COc1cc(C2C3CC4CCCC[C@H]4N3[C@@]3(C(=O)Nc4cc(Cl)ccc43)C2C(=O)c2nc3ccccc3[nH]2)cc(OC)c1OC (some centres not stated)
Out: 70.1% (inactive)

In: Subsequent entry: `O=S(=O)(NCCNc1nccc(-c2c(-c3cccc(F)c3)nc3sccn23)n1)c1ccc(Br)cc1`
Out: 76.4% (inactive)

In: Subsequent entry: CCCCCCCCO/N=C\c1c2c(O)c3c(O)c(C)c4c(c3c1O)C(=O)C(C)(O/C=C\C(OC)C(C)C(OC(C)=O)C(C)C(O)C(C)C(O)C(C)/C=C\C=C(\C)C(=O)N2)O4 (configuration not stated)
Out: 42.9% (inactive)

In: Subsequent entry: `O=C(NNc1nc2c(F)cccc2n2cccc12)c1cnccn1`
Out: -0.386% (active)

In: Subsequent entry: `O=C(/C=C/c1c(-c2ccc(Cl)cc2)nn(-c2ccccc2)c1C(F)(F)F)c1ccc(Cl)cc1`
Out: 102% (inactive)

In: Subsequent entry: `N/C(=N\C(N)=N\c1nc2ccccc2s1)c1cccc(Cl)c1`
Out: 99.2% (inactive)

In: Subsequent entry: CC(Sc1nc2sc3c(c2c(=O)n1-c1ccc(Cl)cc1)CCCC3)C(=O)Nc1nc(-c2ccc(Br)cc2)cs1 (configuration not stated)
Out: 107% (inactive)

In: Subsequent entry: NC(=S)N1N=C(c2ccccc2)CC1c1cn(-c2ccccc2)nc1-c1ccc(OCc2ccccc2)cc1 (configuration not stated)
Out: 102% (inactive)

* * *

- Tested on: NCI-H226 lung
- methodSummary: NCI-60 one-dose screen, 48 h
- recordedConditions: 10 µM unless noted
Compounds without any hit were thinned out: in the full panel of roughly 83,000, 20% have a hit. Activity calls are given as the source filed them. Rule for the calls: active = growth percent below 10; inactive = the rest.
Classes to choose from: 1 for active, 0 for inactive

Field: example entries. Status: answers known.
compound	assignedCategory
CC(C)N1C(=O)/C(=C2\SC(=S)N(C(C)C)C2=O)SC1=S	0
CNCCOc1nc2c3cnccc3cc(-c3cc(OC)c(OC)c(OC)c3)c2c2ccncc12	1
C=C1C(=O)O[C@H]2[C@H]1CC/C(COC(=O)NCc1c[nH]c3ccc(Cl)cc13)=C\CC[C@@]1(C)O[C@@H]21	1

In: Recorded test outcome, item `Oc1ccc(C(c2ccc(O)cc2)c2ccc(Br)cn2)cc1`
Out: 1

In: Subsequent entry: `NNC(=O)c1ccc(-n2nc(-c3ccccc3)c3ccccc32)cc1`
Out: 0

In: Subsequent entry: COc1ccc(C(=O)C2C(C#N)C(C#N)C3C=Cc4ccccc4N32)cc1 (centres undefined)
Out: 0

In: Subsequent entry: `O=C(/C=C/c1c(-c2ccc(Cl)cc2)nn(-c2ccccc2)c1C(F)(F)F)c1ccc(Cl)cc1`
Out: 0

* * *

- System: SF-295 CNS
- methodSummary: NCI-60 one-dose screen, 48 h (100 = growth as untreated, 0 = no growth, -100 = all killed)
- recordedConditions: 10 µM unless noted
The panel holds about 83,000 compounds, 20% with a hit somewhere; the sample as a whole holds those more often.
So basically: is growth under 30%? Then t. Not under? Then f.

Field: example entries. Status: answers known.
molecule	assignedCategory
COc1ccc(C(=O)c2nc3ccccc3n2CC(=O)c2ccc(Cl)cc2)cc1	t
CCCCN1C=CCN(CCCC)C1	f
CCNc1nc2ccc(Nc3ccnc4cc(Cl)ccc34)cc2[nH]1	f
O=C(CCN1CCCC1)Nc1ccc2c(Nc3ccc(F)cc3)c3ccccc3nc2c1	t
N#Cc1cccc(-c2ccc3c(c2)NC(=O)/C3=C\c2ccc[nH]2)c1	f
Cc1cc2nc3c4cc(C=O)ccc4n(CCN(C)C)c3nc2cc1C	t

In: growth strictly < 30% for this molecule? `CCN(CC)c1ccc(/C=N/NC(=O)CSc2nc3ccccc3c(=O)n2CCc2ccc(S(N)(=O)=O)cc2)c(O)c1`
Out: f

In: Subsequent entry: `Cc1ccc(S(=O)(=O)Nn2c3c(cc(-c4nc5ccccc5s4)c2=O)CCCCCC3)cc1`
Out: f

In: Subsequent entry: CC(Sc1nc2ccccc2c(=O)n1CCc1ccc(S(N)(=O)=O)cc1)C(=O)Nc1ccc(Cl)cc1 (stereo not drawn)
Out: f

In: Subsequent entry: `CCOC(=O)Oc1c(OC)cc(C(=O)c2ccc(OC)c(OC(=O)CCl)c2OC)cc1OC`
Out: t

In: Subsequent entry: `N#C/C(=C\c1c(-c2ccccc2)[nH]c2ccccc12)C(=O)c1ccc(Cl)cc1`
Out: f

In: Subsequent entry: `CC(=O)Oc1ccc(/C=N/NC(N)=S)nc1`
Out: f

In: Subsequent entry: `COc1cc2oc(-c3cccc(C(=O)Nc4ccc(Cl)cc4)c3)cc(=O)c2c(O)c1OC`
Out: f

* * *

- System: HT29 colon
- methodSummary: NCI-60 one-dose screen, 48 h (100 = growth as untreated, 0 = no growth, -100 = all killed)
- recordedConditions: 10 µM unless noted
Compounds without any hit were thinned out: in the full panel of roughly 83,000, 20% have a hit.
Records here are stratified by growth; strata: zone 1: < 20%; zone 2: ≥ 20% and < 90%; zone 3: ≥ 90%

In: GET /class?item= Cn1cc(CC2CC(=O)N(c3ccccc3)C2=O)sc1=NC(=O)c1ccccc1 (centres undefined)
Out: zone 3

In: Subsequent entry: COc1cc(/C=N/NC(=O)c2cnn3c2NC(c2ccccc2)C3)ccc1OCc1ccccc1 (centres undefined)
Out: zone 1

In: Subsequent entry: `COc1cc2c(=O)n(CCN)c3c4cc5c(cc4ccc3c2cc1OC)OCO5`
Out: zone 1

* * *

- Test system: NCI-H322M lung
- methodSummary: NCI-60 one-dose screen, 48 h (100 = growth as untreated, 0 = no growth, -100 = all killed)
- recordedConditions: 10 µM unless noted
This is part of a sample that, as a whole, favours compounds with a hit. Of some 83,000 tested, about 20% had one in any assay.
assayEndpoint: growth (%)
Record the value in %, omitting the unit from your answer.

compound	growth / %
O=C(/C(=C\c1ccc([N+](=O)[O-])cc1)S(=O)Cc1ccc(Cl)cc1)c1ccc(Cl)cc1 (stereo unspecified)	89.5
COc1cc2c(cc1OC)C(=O)/C(=C/c1cc(C)c(O)c(C)c1)S2	50.4

In: // returns reported growth for input `COc1ccc(C(=O)CSc2nc(-c3cc(OC)ccc3OC)cc(-c3ccc(Cl)cc3)c2C#N)cc1`
Out: 67.9

In: Subsequent entry: `COc1cc2nc(-c3ccc(C(F)(F)F)cc3)cc(OCCN3CCCCC3)c2cc1OC`
Out: 73.1

* * *

- Tested on: MALME-3M melanoma
- methodSummary: NCI-60 one-dose screen, 48 h
- recordedConditions: 10 µM unless noted
Compounds without any hit were thinned out: in the full panel of roughly 83,000, 20% have a hit. Active and inactive are the calls of the source. Rule for the calls: active = growth percent below 10; inactive = the rest.
Classes to choose from: active, inactive

Field: example entries. Status: answers known.
compound	measuredOn	assignedCategory
CCOC(=O)C1=C(C)NC(SCc2cc(=O)oc3ccc(F)cc23)=N[C@@H]1c1cccc2ccccc12	MALME-3M melanoma	inactive
O=S(=O)(NCCNc1nccc(-c2c(-c3cccc(O)c3)nc3occn23)n1)c1ccc(C(F)(F)F)cc1	MALME-3M melanoma	active
Brc1ccc2[nH]cc(-c3cncn3CCc3ccccc3)c2c1	MALME-3M melanoma	inactive
CCCCCN1C=C/C(=C\C(=O)N(C)c2ccc(Oc3ccccc3)cc2)c2ccccc21	MALME-3M melanoma	inactive
O=C(Cn1c(C(=O)c2ccccc2)nc2ccccc21)c1ccc(F)cc1	MALME-3M melanoma	inactive
CCOC(=O)c1cc(C(=O)c2ccc(OC)cc2)n2ccc(/C=C/c3cc[n+](CC(=O)c4ccc(OC)cc4)cc3)cc12	MALME-3M melanoma	inactive
CC1=C(C(=O)/C=C/c2c[nH]c3ccccc23)C(c2ccccc2)NC(=S)N1 (configuration not stated)	MALME-3M melanoma	inactive
COc1cccc2c1c1nc3cc(C)c(C)cc3nc1n2CCN(C)C	MALME-3M melanoma	active
COc1cc2oc(-c3cccc(C(=O)Nc4ccc(Cl)cc4)c3)cc(=O)c2c(O)c1OC	MALME-3M melanoma	inactive
NS(=O)(=O)c1ccc(CCN2C(=O)C=CC2=O)cc1	MALME-3M melanoma	inactive

In: Recorded test outcome, item `N=C1C(c2nc3ccccc3s2)=C(O)CN1c1cc(Cl)cc(Cl)c1`
Out: inactive

In: Subsequent entry: `COC(=O)C1=C(C(=O)ON)[C@@H]2C=C[C@@]1([C@@H](Cc1ccccc1)Nc1ccccc1)O2`
Out: active

In: Subsequent entry: `COCc1cnccc1NC1CCCCCC1`
Out: inactive

In: Subsequent entry: `CCN1CCN(CCNc2nccc(-c3c(-c4cccc(OC)c4)nc4occn34)n2)S1(=O)=O`
Out: active
